Hello, the source for this data is PubChem BioAssay (NCATS), in case you need it.

tested on: HeLa; experiment: Primary qHTS to identify gynecologic anti-cancer compounds using libraries of approved drugs and bioactive compounds (AID 1345084); details: Gynecologic cancer cell panel viability, ATPlite luminescence, 48 h; series mostly up to 57.5 µM; also: % is scaled to controls: 0 for no effect and ±100 for the full control effect; nearly all actives have a fitted effect of over 55% in size
Inconclusive results are not listed. Calls of active or inactive are those of the source. Calls follow the shape of the dose curve; as a rule, active = well fitted cell-killing curve with a large enough effect; inconclusive = small, poorly fitted or top-dose-only effect, or effect the other way; inactive = flat fitted curve, though single readings scatter.
measurement.label: activity change, negative = cytotoxicity

Use the examples below as a reference point.
{"molecule": "CC(C)c1ccc2c(c1)[C@H](O)CC1[C@@](C)(C(=O)O)CCC[C@]21C (some centres not stated)", "activity change, negative = cytotoxicity": "inactive"}
{"molecule": "CC1(C)CCCC2(C)c3c4c(c(=O)oc(=O)c3=CCC12)=CCC1C(C)(C)CCCC41C (configuration not stated)", "activity change, negative = cytotoxicity": "inactive"}
{"molecule": "Cc1nnc(-c2ccc3occ(-c4ccc(S(C)=O)cc4)c3c2)o1 (configuration not stated)", "activity change, negative = cytotoxicity": "inactive"}
{"molecule": "C=C(C)[C@@H]1CC[C@]2(C(=O)O)CC[C@]3(C)C(CCC4[C@]5(C)C(CC[C@]43C)C(C)(C)[C@@H](O)[C@@H]5C(=O)O)C12 (some centres not stated)", "activity change, negative = cytotoxicity": "inactive"}
{"molecule": "CC(CNS(=O)(=O)C(C)C)c1ccc(-c2ccc(C#N)cc2)cc1 (configuration not stated)", "activity change, negative = cytotoxicity": "inactive"}
{"molecule": "C/C=C/C=C/C=C/C(=O)OC1C=C2C(O)OC(=O)[C@]2(O)[C@@]2(C)CCCC(C)(C)[C@H]12 (some centres not stated)", "activity change, negative = cytotoxicity": "inactive"}

Moving on to the next molecule.
Request: Return activity change, negative = cytotoxicity measured with HeLa given this molecule: CC1(C)CC[C@]2(C(=O)O[C@@H]3O[C@H](CO)[C@@H](O)[C@H](O)[C@H]3O)CC[C@]3(C)C(=CCC4[C@@]5(C)CC[C@H](O[C@@H]6O[C@H](C(=O)O)[C@@H](O[C@@H]7O[C@H](CO)[C@@H](O)[C@H](O)[C@H]7O)[C@H](O)[C@H]6O[C@@H]6O[C@H](CO)[C@@H](O)[C@H](O)[C@H]6O)C(C)(C)C5CC[C@]43C)C2C1 (some centres not stated)
Response: 0.908% [at 11.6 µM] (inactive)
